Protein target, amino acids: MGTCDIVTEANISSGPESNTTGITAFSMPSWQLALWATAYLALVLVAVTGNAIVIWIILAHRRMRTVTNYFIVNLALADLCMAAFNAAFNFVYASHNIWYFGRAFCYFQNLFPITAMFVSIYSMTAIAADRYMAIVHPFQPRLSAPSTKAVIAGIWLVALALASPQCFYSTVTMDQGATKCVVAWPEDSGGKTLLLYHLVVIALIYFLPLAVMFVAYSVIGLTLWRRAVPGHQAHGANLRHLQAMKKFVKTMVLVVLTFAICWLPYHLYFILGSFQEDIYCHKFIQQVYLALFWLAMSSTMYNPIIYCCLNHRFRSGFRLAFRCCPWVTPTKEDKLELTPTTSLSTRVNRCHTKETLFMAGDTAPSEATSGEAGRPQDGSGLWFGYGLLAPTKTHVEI
Consider the cut-off 1000 nM. If the recorded IC50 is strictly smaller, the label is Yes; if not, the label is No.

Reference set (3 entries):
{"molecule": "COc1ccccc1CN(CC(Cc1c[nH]c2ccccc12)NC(=O)CCc1ccccc1)C(C)=O (racemic)", "classification": "No"}
{"molecule": "COC(=O)CN(Cc1ccccc1OC)CC(Cc1c[nH]c2ccccc12)NC(=O)CN1CCN(c2ccccc2)CC1 (centres unmarked)", "classification": "Yes"}
{"molecule": "COc1ccccc1CN(CC(CC1CNc2ccccc21)NC(=O)CN1CCN(c2ccccc2)CC1)C(C)=O (mixture of isomers)", "classification": "No"}

Q) Hello, I'm reviewing records and need to know if IC50 of CC(=O)N(CC(Cc1c[nH]c2ccccc12)NC(=O)CN1CCN(c2ccccc2)CC1)c1ccccc1 (centres unmarked) is below 1000 nM. Could you check?
A) No

Q) Hello, I'm reviewing records and need to know if IC50 of COc1ccccc1CN(CC(Cc1c[nH]c2ccccc12)NC(=O)CN1CCN(c2ccccc2)CC1)C(=O)CO (centres unmarked) is below 1000 nM. Could you check?
A) Yes

Q) Hello, I'm reviewing records and need to know if IC50 of COc1ccccc1CNCC(Cc1c[nH]c2ccccc12)NC(=O)CN1CCN(c2ccccc2)CC1 (centres unmarked) is below 1000 nM. Could you check?
A) No

Q) Hello, I'm reviewing records and need to know if IC50 of COc1ccccc1CN(CC(Cc1c[nH]c2ccccc12)NC(=O)CN1CCN(c2ccccc2)CC1)C(=O)COC(C)=O (centres unmarked) is below 1000 nM. Could you check?
A) No

----------
measured target: NK-1 receptor (Homo sapiens, UniProt P25103)
Construct: endogenous in cells; host or cells: IM9 cells (human cell line), whole cells
Sequence (P25103 whole entry): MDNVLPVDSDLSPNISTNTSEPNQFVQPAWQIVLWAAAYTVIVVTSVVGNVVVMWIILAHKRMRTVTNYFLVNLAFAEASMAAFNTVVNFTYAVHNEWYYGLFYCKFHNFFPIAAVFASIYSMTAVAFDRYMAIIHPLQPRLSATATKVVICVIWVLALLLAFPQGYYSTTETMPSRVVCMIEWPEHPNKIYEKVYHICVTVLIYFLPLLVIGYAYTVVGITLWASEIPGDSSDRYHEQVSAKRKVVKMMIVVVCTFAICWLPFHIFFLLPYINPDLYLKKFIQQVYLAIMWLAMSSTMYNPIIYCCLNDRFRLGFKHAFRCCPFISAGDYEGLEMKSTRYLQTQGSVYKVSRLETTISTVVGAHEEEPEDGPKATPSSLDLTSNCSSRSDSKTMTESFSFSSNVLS
protocol description: NK-1 Receptor Binding Assay (125I-labeled substance P, IM9 cells)
condition details: @ 5 μM
metric name: NK-1 percent inhibition of binding (% @ 5 μM)
The figure you give is taken to be in % @ 5 μM; do not add the unit.

{"compound": "CCCCCCN(CC(Cc1c[nH]c2ccccc12)NC(c1ccccc1)(c1ccccc1)c1ccccc1)C(C)=O (stereo not drawn) [Example 166]", "NK-1 percent inhibition of binding, % @ 5 μM": 0}
{"compound": "CCCCN(CC(Cc1c[nH]c2ccccc12)NC(c1ccccc1)(c1ccccc1)c1ccccc1)C(C)=O (stereo not drawn) [Example 165]", "NK-1 percent inhibition of binding, % @ 5 μM": 3}

Q) Please report the measured NK-1 percent inhibition of binding for COc1ccccc1CNCC(Cc1ccccc1)NC(c1ccccc1)(c1ccccc1)c1ccccc1 (stereo not drawn) [Example 174]
A) 0

Q) Please report the measured NK-1 percent inhibition of binding for CC(=O)N(CC(Cc1c[nH]c2ccccc12)NC(c1ccccc1)(c1ccccc1)c1ccccc1)c1ccccc1 (stereo not drawn) [Example 167]
A) 0

Q) Please report the measured NK-1 percent inhibition of binding for COc1ccccc1CN(CC(Cc1c[nH]c2cc(C)ccc12)NC(c1ccccc1)(c1ccccc1)c1ccccc1)C(C)=O (stereo not drawn) [Example 171]
A) 0
